The following binders are listed with their measured reactivity (signal normalized to Bi-SEQ ID NO:1) values.
experimental.system: T1, Bi-SEQ ID NO: 3, *H**Glu(Bi-PEG)*…laEA*NH2 (disulfide 6-11; not fully specified)
T1 construct: Synthetic peptide; 12-27 of mature prothrombin with Gla at 25
T1 peptide: {Glu(Bi-PEG)″}-NLERECVEETCSY[Gla]EA-NH2
method: ECL assay (Elecsys 2010), ruthenylated antibody and biotinylated peptide, streptavidin beads
Bridge positions count the residues as written; N and C are the ends. Square brackets hold non-standard residues; d marks the D form. Primed or numbered codes have the meaning given here. Glu(Bi-PEG)″ = Nδ-(N-biotinyl-3-(2-(2-(3-aminopropyloxy)-ethoxy)-ethoxypropyl)-L-glutamine, biotin-PEG linker residue; Gla = N[C@@H](CC(C(=O)O)C(=O)O)C(=O)O
Give a bare numeral; the unit % is implied.

Query :: Entry under review: monoclonal anti-PIVKA-II antibody 9A6 (antibody, V domains shown, Recombinant rabbit IgG from B-cell cloning, expressed in HEK cells) VH: QSVEESGGRLITPGTPLTLTCTVSGFDLSRYAVGWVRQAPGKGLEYIGLIVSDGRTYYASWAKGRFTVSKTSSTTVDLKMTSPTAGDTATYYCYRNVSLWGQGTLVSVSS VL: DVVMTQTPSSVEAAVGGTVTIKCQASQSIGSNLAWYQQKPGQPPKLLIYSASTLASGVPSRFSGSGSGTEFTLTFSGVQCGDAATYFCQSYAGVSANIFYYSFGGGTEVVVM . Reported reactivity (signal normalized to Bi-SEQ ID NO:1)?
Result :: 107

Query :: Entry under review: monoclonal anti-PIVKA-II antibody 7A10 (antibody, V domains shown, Recombinant rabbit IgG from B-cell cloning, expressed in HEK cells) VH: QSLEESGGRLVTPGTPLTLTCTVSGIDLSTYAMGWVRQAPGKGLEYIGIIRSSGRTYYASWAKGRFTVSKTSSTTVDLSMTSPTTEDTATYYCYRNVSLWGQGTLVSVSS VL: DVVMTQTPSSVEAAVGGTVTIKCQASQSIGNNLAWYQQKPGQRPNLLIYSASTLASGVPSRFRGSGSGTEFTLTISGVQCDDAATYYCQSYAGVSESVFWYSFGGGTGVVVK . Reported reactivity (signal normalized to Bi-SEQ ID NO:1)?
Result :: 105

Query :: Entry under review: monoclonal anti-PIVKA-II antibody 4E8 (antibody, V domains shown, Recombinant rabbit IgG from B-cell cloning, expressed in HEK cells) VH: QSVEESGGRLVTPGTPLTLTCTVSGFDLSRYAVGWVRQAPGKGLEYIGLITSDGRTYYANWAKGRFTVSKTSSTTVDLKMTSPTTEDTATYYCYRNVSLWGQGTLVSVSS VL: DVVMTQTPASVEAAVGGTVTIKCQASQSIGSNLAWYQQKSGQPPKLLIYSASTLAPGVSSRFSGSGSGTEFTLTFTGVQCGDAATYFCQSYAGVSANIFYYSFGGGTEVVVM . Reported reactivity (signal normalized to Bi-SEQ ID NO:1)?
Result :: 108
